molecular target: human platelet PDE5 (Homo sapiens, UniProt O76074); construct: utilizes PDE5 isolated from human platelets; from tissue; host or cells: human platelets; assay: Method A: PDE-5 Inhibition Scintillation Proximity Assay (SPA) - Human Platelet; format: biochemical; conditions: cGMP substrate 500 nM, PDE5 isolated from human platelets
Counter-ions that a name gives are not always drawn.
experimentalReadout: pIC50
Please treat pIC50 as minus the base-10 logarithm of the molar concentration.

Field: example entries. Status: answers known.
{"compound": "CCOCCn1nc(CNC(=O)CO)c2nc(N(C)C)nc(Nc3cc(C)ccn3)c21", "pIC50": 9.11}
{"compound": "CCOCCn1nc(CNS(C)(=O)=O)c2nc(N(C)C)nc(Nc3cc(C)ccn3)c21", "pIC50": 8.90}
{"compound": "CCOCCn1nc(CN(C)C(C)=O)c2nc(NC)nc(Nc3cc(C)ccn3)c21", "pIC50": 8.26}
{"compound": "CCOCCn1nc(CN2CCC[C@@H]2COC)c2nc(N(C)C)nc(Nc3cc(C)ccn3)c21", "pIC50": 8.37}
{"compound": "CCOCCn1nc(CNCCOC)c2nc(N(C)C)nc(Nc3cc(C)ccn3)c21", "pIC50": 8.48}
{"compound": "CCNCc1nn(CCOCC)c2c(Nc3ccc(C)cn3)nc(N(C)C)nc12", "pIC50": 8.47}

// next entry
The compound listed as CCOCCn1nc(CN2CCN(C)CC2)c2nc(N(C)C)nc(Nc3cc(C)ccn3)c21 [Example 18, hydrochloride] has a reported pIC50 of 8.64
